- target-or-system: UniProt P11362
- assay: In vitro biochemical kinase assay (Caliper Assay), FGFR1
- cond: enzyme 0.25 nM, ATP 382 μM, 20 minutes; read-out: Enzymatic activity IC50(nM) FGFR1
measured-attribute: IC50

{"columns": ["compound", "measurement"],
 "data": [
  ["CCn1c(=O)c(-c2c(F)c(OC)cc(OC)c2F)cc2cnc(-c3cnn(C)c3)cc21", "≤ 5 nM"],
  ["CCn1c(=O)c(-c2c(Cl)c(OC)cc(OC)c2Cl)cc2cnc(-c3cn(C)nc3C)cc21", "10 to 50 nM"],
  ["CCn1c(=O)c(-c2c(Cl)c(OC)cc(OC)c2Cl)cc2cnc(-c3cnn(C4CN(S(C)(=O)=O)C4)c3)cc21", "10 to 50 nM"]
]}

Looking for the measured IC50 of CCn1c(=O)c(-c2c(F)c(OC)cc(OC)c2F)cc2cnc(-c3cnn(CCN4CCOCC4)c3)cc21 , can you help?
5 to 10 nM

Looking for the measured IC50 of COc1cc(OC)c(Cl)c(-c2cc3cnc(-c4cnn(C)c4)cc3n(C)c2=O)c1Cl , can you help?
10 to 50 nM

Looking for the measured IC50 of COc1cc(OC)c(F)c(-c2cc3cnc(-c4cnn(CCN5CCOCC5)c4)cc3n(C(C)C)c2=O)c1F , can you help?
≤ 5 nM

Looking for the measured IC50 of COc1cc(OC)c(Cl)c(-c2cc3cnc(-c4cnn(C)c4)cc3n(C3CCOC3)c2=O)c1Cl (stereo in doubt) [Example 21] , can you help?
5 to 10 nM

###

- target-or-system: UniProt P11362
- assay: In vitro biochemical kinase assay (Caliper Assay), FGFR1
- cond: enzyme 0.25 nM, ATP 382 μM, 20 minutes; read-out: Enzymatic activity IC50(nM) FGFR1
measured-attribute: IC50

{"columns": ["compound", "IC50"],
 "data": [
  ["COc1cc(OC)c(Cl)c(-c2cc3cnc(-c4cnn(C)c4)cc3n(CCN3CCOCC3)c2=O)c1Cl [Example 5]", "50 to 500 nM"],
  ["COc1cc(OC)c(Cl)c(-c2cc3cnc(-c4cnn(C)c4)cc3n([C@H]3CCOC3)c2=O)c1Cl [Example 22]", "≤ 5 nM"],
  ["COc1cc(OC)c(Cl)c(-c2cc3cnc(-c4cnn(CCN(C)C)c4)cc3n(C3CCOC3)c2=O)c1Cl (stereo not shown) [Example 48]", "10 to 50 nM"],
  ["CCn1c(=O)c(-c2c(Cl)c(OC)cc(OC)c2Cl)cc2cnc(-c3cn(C4CCN(C)C4)nc3C)cc21 (stereo not shown) [Example 46]", "10 to 50 nM"],
  ["CCn1c(=O)c(-c2c(Cl)c(OC)cc(OC)c2Cl)cc2cnc(-c3cnn(C)c3)cc21 [Example 1]", "10 to 50 nM"],
  ["COc1cc(OC)c(F)c(-c2cc3cnc(-c4ccc(C(C)(C)C#N)nc4)cc3n(C3CCOC3)c2=O)c1F (stereo not shown) [Example 40]", "5 to 10 nM"]
]}

Now for another entry.
Looking for the measured IC50 of COc1cc(OC)c(F)c(-c2cc3cnc(-c4cnn(C)c4)cc3n(C3CCCC3)c2=O)c1F [Example 33] , can you help?
≤ 5 nM

###

- Test system: RT112 bladder carcinoma cells (FGFR3-TACC3 fusion)
- assay: Cell proliferation assay (Cell Titer Glo), RT112
- Assay type: cell-based
- cond: Homo sapiens, RT-112, 72 h, 3 days, CTG, numeric values, read-out: Cellular IC50 (nM) RT112
measured-attribute: IC50 (nM)

P: COc1cc(OC)c(Cl)c(-c2cc3cnc(-c4cnn(CCN5CCOCC5)c4)cc3n(C3CCOC3)c2=O)c1Cl (centres unmarked)
Q: COc1cc(OC)c(F)c(-c2cc3cnc(-c4ccc(C5(C#N)CCC5)nc4)cc3n(C3CCOC3)c2=O)c1F (centres unmarked)
// pick min by IC50: P , Q State the label of the item chosen.
Q
(Q: 2.5 nM, P: 4.1 nM)

###

- target-or-system: UniProt:P11362
- assay: In vitro biochemical kinase assay (Caliper Assay), FGFR1
- cond: enzyme 0.25 nM, ATP 382 μM, 20 minutes; read-out: Enzymatic activity IC50(nM) FGFR1
measured-attribute: IC50

Reference set, count: 4
{"columns": ["molecule", "target-or-system", "IC50"],
 "data": [
  ["COc1cc(OC)c(F)c(-c2cc3cnc(-c4cnn(C)c4)cc3n(C3CCOC3)c2=O)c1F (centres unmarked)", "UniProt:P11362", "≤ 5 nM"],
  ["COc1cc(OC)c(Cl)c(-c2cc3cnc(-c4cnn(C)c4)cc3n(CC3CC3)c2=O)c1Cl", "UniProt:P11362", "10 to 50 nM"],
  ["COc1cc(OC)c(Cl)c(-c2cc3cnc(-c4cnn(CCN5CCOCC5)c4)cc3n(C)c2=O)c1Cl", "UniProt:P11362", "50 to 500 nM"],
  ["COc1cc(OC)c(Cl)c(-c2cc3cnc(-c4cnn(C)c4)cc3n(C(C)C)c2=O)c1Cl", "UniProt:P11362", "5 to 10 nM"]
]}

Now for another entry.
Looking for the measured IC50 of COc1cc(OC)c(F)c(-c2cc3cnc(-c4ccc(C5(C#N)CCC5)nc4)cc3n(C3CCOC3)c2=O)c1F (centres unmarked) , can you help?
5 to 10 nM

###

- target-or-system: FGFR1 (Homo sapiens (Human), UniProt P11362)
- Sequence (P11362 22-822): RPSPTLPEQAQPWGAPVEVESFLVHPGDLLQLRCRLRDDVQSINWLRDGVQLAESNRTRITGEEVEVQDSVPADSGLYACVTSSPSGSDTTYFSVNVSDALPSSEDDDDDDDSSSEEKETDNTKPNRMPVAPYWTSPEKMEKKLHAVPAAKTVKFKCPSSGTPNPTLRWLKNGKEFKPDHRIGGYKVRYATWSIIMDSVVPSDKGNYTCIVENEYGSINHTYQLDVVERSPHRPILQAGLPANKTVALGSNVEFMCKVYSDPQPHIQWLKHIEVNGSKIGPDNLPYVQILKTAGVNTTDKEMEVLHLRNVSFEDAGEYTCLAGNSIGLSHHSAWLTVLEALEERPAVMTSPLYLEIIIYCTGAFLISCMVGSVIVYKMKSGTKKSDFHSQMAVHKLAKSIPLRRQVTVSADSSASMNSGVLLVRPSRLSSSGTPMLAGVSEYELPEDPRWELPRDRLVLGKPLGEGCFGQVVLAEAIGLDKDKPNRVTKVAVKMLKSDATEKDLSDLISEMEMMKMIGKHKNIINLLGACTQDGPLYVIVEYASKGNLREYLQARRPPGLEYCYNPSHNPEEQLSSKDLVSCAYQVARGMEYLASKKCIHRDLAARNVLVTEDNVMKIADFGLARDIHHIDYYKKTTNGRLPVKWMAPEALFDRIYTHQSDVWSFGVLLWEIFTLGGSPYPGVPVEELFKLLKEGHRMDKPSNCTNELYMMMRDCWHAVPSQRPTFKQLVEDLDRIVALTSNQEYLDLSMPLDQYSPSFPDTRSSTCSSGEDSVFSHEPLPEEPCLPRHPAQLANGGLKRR
- assay: In vitro biochemical kinase assay (Caliper Assay), FGFR1
- cond: enzyme 0.25 nM, ATP 382 μM, 20 minutes; read-out: Enzymatic activity IC50(nM) FGFR1
- Description: I. In Vitro Biochemical Kinase Assay of FGFR 1˜3 Caliper Assay was used in the present invention to determine the inhibitory activities of the compounds against FGFR1, FGFR2, and FGFR3. The specific experimental procedure was as follows: • 1. […] IC50 was determined by non-linear regression analysis of percent inhibition at different concentration level of the compound.
measured-attribute: IC50

Reference set, count: 3
{"columns": ["molecule", "measurement"],
 "data": [
  ["COc1cc(OC)c(Cl)c(-c2cc3cnc(-c4ccc(C5(C#N)CCC5)nc4)cc3n(C3CCOC3)c2=O)c1Cl (stereo not shown) [Example 16]", "50 to 500 nM"],
  ["COc1cc(OC)c(Cl)c(-c2cc3cnc(-c4cnn(C)c4)cc3n(C3CCOC3)c2=O)c1Cl (stereo not shown) [Example 7]", "≤ 5 nM"],
  ["CCn1c(=O)c(-c2c(Cl)c(OC)cc(OC)c2Cl)cc2cnc(-c3cnn(CCN4CCOCC4)c3)cc21 [Example 10]", "10 to 50 nM"]
]}

Now for another entry.
Looking for the measured IC50 of CCn1c(=O)c(-c2cc(OC)cc(OC)c2Cl)cc2cnc(-c3cnn(C)c3)cc21 [Example 13] , can you help?
50 to 500 nM
